System: SK-OV-3 ovarian
Experiment: NCI tumour cell line growth inhibition, 48 h
MEASUREMENT_TYPE: TGI

CC[C@H]1C=CCC[C@@]2(C[C@@H]3CC[C@H]4[C@@H](C(=O)OCCCCCCCCCCCCCCCC(=O)N(CCCNC(C)=O)C[C@H](CCNC(C)=O)OC(C)=O)[C@@]5(CCC[C@@H](C)O5)NC(=[N+]34)N2)O1 | 3.12 µM
O=C1Nc2ccc(CN3CCOC3=O)cc2/C1=C/c1cc(CN2CCOCC2)c[nH]1 | > 100 µM
CN(N=O)C(=O)Nc1ccc(C(=O)O)cc1 | > 100 µM
Cc1ccc(/C=C2\CCCCCC2=O)cc1 | > 100 µM
Cc1ccccc1NC(=O)C(=O)CC(=O)C1CCOC1=O (stereo not drawn) | > 100 µM

Fill blank: measured TGI of the molecule CC(=O)c1sc2n(C)c(=O)c3ccccc3[n+]2c1C is ____.
> 100 µM

# lookup: TGI of Cc1cc(C)nc(NS(=O)(=O)c2ccc(Nc3nnc(/C=C/c4c(O)ccc5ccccc45)c(=O)n3N)cc2)n1
> 100 µM

Item under review: Cc1ccc(C2=Nn3c(nc4sc5c(c4c3=O)CCCC5)SC2)cc1 . Reported TGI?
> 100 µM

GET /values?readout=TGI&item= COc1cc2oc(-c3cccc(C(=O)Nc4ccc(C)cc4)c3)cc(=O)c2c(OC)c1OC
68.4 µM

Fill in: TGI of Nc1ncnc2c1ncn2[C@@H]1C[C@H](NO)[C@@H](O)[C@H]1O is ___
> 100 µM

---

Reported values of GI50 for individual entries
Test system: NCI/ADR-RES ovarian
Assay: NCI tumour cell line growth inhibition, 48 h

CC(=O)N1N=C(c2ccc(Nc3nc(Nc4ccc(F)cc4)nc(Nc4ccc(Cl)cc4)n3)cc2)CC1c1ccc(N(C)C)cc1 (stereo not drawn) | 1650 nM
O=C1c2ccccc2C(=O)c2sc(Nc3ccc(Cl)cc3)nc21 | 2100 nM

Next molecule, please.
Look up GI50 for this molecule: CNC12C3C4C1C1C2C3C41C(=O)N[C@H](C(=O)N(C)[C@H](C[C@@H](OC(C)=O)c1nc(C(=O)N[C@@H](Cc2ccccc2)C[C@H](C)C(=O)OC)cs1)C(C)C)C1CC1 (stereo partly drawn)
> 15000 nM

---

Test system: COLO 205 colon
Assay: NCI tumour cell line growth inhibition, 48 h
This listing pairs compounds with measured TGI.

Consider the reported TGI for these compounds:
Cc1ncc([N+](=O)[O-])n1CCNC(=O)Cn1ccnc1[N+](=O)[O-] | > 100 µM
COc1ccc(C2N3CCCCC3[C@@H]3c4[nH]c5ccccc5c4CCN23)c(OC)c1 (stereo partly drawn) | 43.2 µM
CN(N=O)C(=O)Nc1ccc(C(=O)O)cc1 | > 100 µM
CCOC(=O)C1=C(c2ccccc2)NC(c2ccccc2)=C(C(=O)OCC)c2c1c(=O)cc[nH]c2=O | > 100 µM
CC(=O)C(N=NC1CCC(S(=O)(=O)NB2N=CS2)CC1)C(=O)Nc1ccccc1C (stereo not drawn) | 37.2 µM
NC(=S)N/N=C/c1ccc(OC(=O)COc2ccccc2)cn1 | > 100 µM
O=C1COc2cc3c(cc2N1)SCCC(=O)N3 | > 100 µM
CCOC(=O)C(O)Cc1cnc2ccccc2n1 (stereo not drawn) | > 100 µM
CN(C)c1cccc(/C=C(\C#N)c2ccccc2)c1 | 5.41 µM
COc1ccc(-c2cc(=O)c3ccc(F)cc3[nH]2)cc1 | > 100 µM

Please turn your attention to the following entry.
Give its TGI value. Item: [O-]/[N+](=N/c1ncc(-c2ccccc2)cn1)c1ncc(-c2ccccc2)cn1
> 100 µM

These data points were gathered from PubChem BioAssay (NCI).
